tested on: OVCAR-5; test: NCI tumour cell line growth inhibition, 48 h
Calls of active or inactive are those of the source. No stated cut-off is given here; in the data, active = GI50 up to about 1.1 µM and inactive = higher.
Outcome codes: T (active), F (inactive)

In [3]: df
Out[3]:
                                   compound  group_label
0  CN(C)c1ccc(C(=NNC(=O)c2cc3ccccc3[nH]2)c2ccc(N(C)C)cc2)cc1            T
1          O=C(c1cccs1)c1nccc2c1cnc1ccccc12            F
2          Cn1c(=O)c2[nH]cnc2n(CC(=O)O)c1=O            F
3              CNn1c(-c2ccc(C)cc2)n[nH]c1=O            F
4  O=C(CSc1nc(-c2ccccc2)c(-c2ccccc2)[nH]1)NNC(=S)Nc1ccccc1            F
5  CC(NNC(=O)c1ccc[n+]([BH2-]C#N)c1)c1ccccc1 (stereo unspecified)            F

====

tested on: A549; test: NCI tumour cell line growth inhibition, 48 h
Calls of active or inactive are those of the source. No stated cut-off is given here; in the data, active = GI50 up to about 1.1 µM and inactive = higher.
PROPERTY_LABEL: GI50

In [3]: df
Out[3]:
                                    compound  property_label               result
 0  COC(=O)OCC1OC(N2C(=O)NC(=O)C(I)C2N=[N+]=[N-])CC1OC(=O)OC (stereo unspecified)            GI50  > 100 µM (inactive)
 1  COc1cc(CNc2nc3c(N)cc(C(F)(F)F)cc3nc2-c2ccccc2)cc(OC)c1OC            GI50     19 µM (inactive)
 2  CSc1cc(Cl)c(C)cc1S(=O)(=O)NC(=O)NNc1ccc(F)c(Cl)c1            GI50  > 100 µM (inactive)
 3  CCN(CC)CCCC(C)NC(=O)c1cc(-c2nccn2C)nc2ccc(C)cc12 (stereo unspecified)            GI50  > 100 µM (inactive)
 4  N#CCCN(CCC#N)c1ccc(/C=C2\SC(=S)NC2=O)cc1Br            GI50  > 100 µM (inactive)
 5                 CCOc1snc(C(Cl)(Cl)Cl)c1Cl            GI50   17.5 µM (inactive)
 6          O=C(c1cccs1)c1nccc2c1cnc1ccccc12            GI50  > 100 µM (inactive)
 7  COc1cc(OCc2ccc3nc(OC)c(OC)nc3c2)cc(OC)c1OC            GI50   > 10 µM (inactive)
 8  Cc1[nH]c2ccccc2c1C1=CC(=O)N(c2ccccc2)C1=O            GI50   22.5 µM (inactive)
 9  Cc1cc(N2CCOCC2)nc2ccc(Cc3ccc4nc(N5CCOCC5)cc(C)c4c3)cc12            GI50   41.7 µM (inactive)
10  CCOC(=O)NC(Nc1cccc(F)c1)(C(F)(F)F)C(F)(F)F            GI50  > 100 µM (inactive)

====

tested on: LXFL 529; assay: NCI tumour cell line growth inhibition, 48 h
Active and inactive are the calls of the source. Cut-off read from the data, not from the text of the source: active = GI50 up to about 1.1 µM and inactive = higher.
Labels: active, inactive

>>> df
                                    compound  group_label
 0  CCOC(=O)C(Cc1ccccc1)NC(=O)OC(C)(C)C (centres undefined)     inactive
 1  O=C1C2c3[nH]c4ccccc4c3C3CCC(c4ccccc4)CC3C2C(=O)N1c1ccccc1 (centres undefined)     inactive
 2  Cc1nc(-n2nc(-c3ccccc3)cc2-c2ccccc2)sc1C(/C=C\c1ccc([N+](=O)[O-])cc1)=N/NC(=S)NN     inactive
 3  COc1ccc(C(=O)CC2=Nc3nnc(CCCCCCCc4nnc5n4C(=O)C(CC(=O)c4ccc(OC)cc4)=N5)n3C2=O)cc1     inactive
 4       COC(=O)C12CC3CC(CC(C(=O)O)(C3)C1)C2     inactive
 5  COC1CC(OC)C(O)C(CO)O1 (centres undefined)     inactive
 6  CCOC(=O)C1=C(C(=O)OCC)C2(c3ccccc3)N(O1)c1ccccc1C2(C)C (centres undefined)     inactive
 7  COC(=O)C(Cc1cc(OC)c(OC)c(OC)c1)c1ccc(OC)cc1 (centres undefined)     inactive
 8  COc1cc2c(oc(=O)c3c4oc([Si](C)(C)C)cc4cc(OC)c23)c2cccc(O)c12     inactive
 9          Cn1c(=O)c2[nH]cnc2n(CC(=O)O)c1=O     inactive
10  CCCCCCCCOCC(CO)OCCCCCCCC (centres undefined)     inactive
11  CC(C)CC12CC3CCC(CNC1=O)C32C (centres undefined)     inactive
12              C/C=C(/CCCCNCCCC)[Si](C)(C)C     inactive
13  CCN(CC)CCNC(=O)c1ccc(C)c(OCc2ccccc2)c1[N+](=O)[O-]     inactive
14         COc1ccc(/C=C/c2cc(OC)cc(OC)c2)cc1     inactive
15  COc1ccc2nccc(NCCCN3CCN(CCCNc4ccnc5ccc(OC)cc45)CC3)c2c1       active
16  CC[n+]1c(/C=C/c2ccc(N(CCCl)CCCl)cc2)ccc2cc(Br)ccc21       active
17  Cn1cc(NC(=O)c2cc(NC(=O)Nc3cc(C(=O)Nc4cc(C(=O)NCCC(=N)N)n(C)c4)n(C)c3)cn2C)cc1C(=O)NCCC(=N)N     inactive
18  COC(=O)OCC1OC(N2C(=O)NC(=O)C(I)C2N=[N+]=[N-])CC1OC(=O)OC (centres undefined)     inactive
